VIM1 KP599644 MITC95 listing for selected compounds.
Tested on: Klebsiella pneumoniae expressing VIM-1 (IHMA599644)
procedureDetails: Antibiotic potentiation activity: synergistic concentration (MITC95) with imipenem, growth by OD600
Format: cell-based
experimentalContext: 95% inhibition of bacterial growth, strain IHMA599644
Please respond with the number in µM and leave the unit unwritten.

> print(dat)
                               samplesmiles  quantitativereadout
1  CCC[C@H](C(=O)O)[C@H](Cc1ccc(NCCN2CCCCC2)cc1)c1nn[nH]n1                   50
2  O=C(O)[C@@H](C1CCCC1)[C@H](Cc1ccc(C2=CCNC2)cc1)c1nnn[nH]1                  6.2

Proceed to the following item.
Q) Record CC(C)C[C@H](C(=O)O)[C@H](Cc1cnc(N)s1)c1nnn[nH]1 : what is its VIM1 KP599644 MITC95 with Klebsiella pneumoniae expressing VIM-1 (IHMA599644)?
A) 18.8

----------
target: NDM-1 (Klebsiella pneumoniae, UniProt C7C422)
Sequence (C7C422 29-270, looked up, species assumed): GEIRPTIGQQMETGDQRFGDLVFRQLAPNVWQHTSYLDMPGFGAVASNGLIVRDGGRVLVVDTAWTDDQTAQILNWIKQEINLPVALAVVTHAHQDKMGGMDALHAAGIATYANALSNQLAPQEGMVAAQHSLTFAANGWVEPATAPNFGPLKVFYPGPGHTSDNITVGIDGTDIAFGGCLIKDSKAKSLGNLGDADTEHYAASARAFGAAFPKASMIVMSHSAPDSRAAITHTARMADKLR
procedureDetails: Enzyme activity: determination of IC50, fluorescence assay with CCF2-FA substrate
Assay type: biochemical
experimentalContext: enzyme 1 pM, CCF2-FA 1.25 μM, 2 hours at 25° C.; read-out: NDM1 IC50
Recorded IC50 determines the label; the label ranges are bin 0 (below 40 nM), bin 1 (40 nM to below 400 nM), bin 2 (400 nM or more)

Here are 2 compounds together with their reported answers.
> print(dat)
                                   compound  classname
1  CC(C)[C@H](C(=O)O)[C@H](Cc1ccc(C2=CCNC2)cn1)c1nnn[nH]1 [Example 65]      bin 2
2  CCC[C@H](C(=O)O)[C@H](Cc1ccnc(N)c1)c1nnn[nH]1 [Example 118]      bin 2

Q) Form: Item = O=C(O)[C@@H](Cc1ccccc1)[C@H](Cc1ccccc1)c1nnn[nH]1 [Example 3] ; Class = ?
A) bin 1

Q) Form: Item = CC(C)=CCCC(C(=O)O)[C@H](Cc1ccccc1)c1nnn[nH]1 (stereo in doubt) [Example 15] ; Class = ?
A) bin 1

Q) Form: Item = CCC[C@H](C(=O)O)[C@H](Cc1ccc(-c2ccc(S(N)(=O)=O)cc2)cc1)c1nn[nH]n1 [Example 197] ; Class = ?
A) bin 0

----------
target: NDM-1 (Klebsiella pneumoniae)
procedureDetails: Enzyme activity: determination of IC50, fluorescence assay with CCF2-FA substrate
Assay type: biochemical
experimentalContext: enzyme 1 pM, CCF2-FA 1.25 μM, 2 hours at 25° C.; read-out: NDM1 IC50
pIC50 listing for selected molecules.
// field semantics: pIC50 = negative decimal log of concentration (mol/L)

For orientation, consider the following solved cases.
> print(dat)
                                   molecule                         target  assayreadout  quantitativereadout
1  CCC[C@H](C(=O)O)[C@H](Cc1ccc(N2CCN(C)CC2)cc1)c1nn[nH]n1  NDM-1 (Klebsiella pneumoniae)         pIC50                 6.80
2  CCC[C@H](C(=O)O)[C@H](Cc1ccc(NCCO)cn1)c1nnn[nH]1  NDM-1 (Klebsiella pneumoniae)         pIC50                 6.47
3  CCC[C@H](C(=O)O)[C@H](Cc1ccc(C(F)(F)F)cc1)c1nnn[nH]1  NDM-1 (Klebsiella pneumoniae)         pIC50                 7.24
4  CCC[C@H](C(=O)O)[C@H](Cc1ccc(C)nc1)c1nnn[nH]1  NDM-1 (Klebsiella pneumoniae)         pIC50                 6.60

Q) Param item = CCC[C@H](C(=O)O)[C@H](Cc1ccc(-c2cn(C)c(=O)n(C)c2=O)cc1)c1nn[nH]n1 ; retrieve measured pIC50.
A) 7.51

Q) Param item = CCC[C@H](C(=O)O)[C@H](Cc1ccc(-c2cccc(CN3CCCCC3)c2)cc1)c1nn[nH]n1 ; retrieve measured pIC50.
A) 7.09

Q) Param item = O=C(O)[C@@H](C1CCOC1)[C@H](Cc1ccc(C2CCNC2)cc1)c1nnn[nH]1 (some centres unmarked) ; retrieve measured pIC50.
A) 6.42

Q) Param item = CCC[C@H](C(=O)O)[C@H](Cc1cccc(N)n1)c1nnn[nH]1 ; retrieve measured pIC50.
A) 5.89
